System: WPMY1-TUBA1B-RELA
Assay: lowest phenotypically active concentration; higher = less potent
Details: treatment time: 24 h
Attribute: lowest phenotypically active concentration
Test readout: lowest phenotypically active concentration (µM)

| Compound | Relational operator | Result number |
| --- | --- | --- |
| CC[C@H]1CN2CCc3cc(OC)c(OC)cc3[C@@H]2C[C@@H]1C[C@H]1NCCc2cc(OC)c(OC)cc21 | ≤ | 0.3 |
| C[C@@]1(CO)[C@H](O)CC[C@@]2(C)[C@H]1CC[C@H]1C[C@@H]3C[C@@]12CC[C@]3(O)CO | ≤ | 0.3 |
| CC[C@]12C=CCN3CC[C@]4(C(=C(C(=O)OC)C1)Nc1ccccc14)[C@@H]32 [Tabersonine dichlorhydrate] | = | 9 |
| O=C1NC(=S)N(c2cccc(Br)c2)C(=O)/C1=C/c1ccco1 | = | 9 |
| CC(C)(C)c1cc(C=C(C#N)C#N)cc(C(C)(C)C)c1O | = | 1 |
| C[C@]12CC[C@H](O)C[C@H]1CC[C@@H]1[C@@H]2C[C@@H](O)[C@]2(C)[C@@H](C3=CC(=O)OC3)CC[C@]12O | = | 1 |
| N#CC(C#N)=NNc1ccc(OC(F)(F)F)cc1 | = | 9 |
| COc1cc([C@@H]2c3cc4c(cc3[C@H](O)[C@H]3COC(=O)[C@H]23)OCO4)cc(OC)c1OC | ≤ | 0.3 |

* * *

Test system: WPMY1-CANX-COX4
Experiment: phenotypically active (imaging signature differs from DMSO and reproducible) at any of 0.3-9 uM (binary (1 = active, 0 = inactive)); higher = active
Settings: treatment time: 24 h
Where a name gives a salt, the structure may show the parent alone.
Possible outcomes: true = active, false = inactive

| Molecule | Label |
| --- | --- |
| CC(C)(N)Cc1ccccc1 | false |
| C[C@@H]1O[C@H](C[N+](C)(C)C)C[C@H]1O [(+)-Muscarine iodide] | false |
| C=C[C@H]1C[N@@]2CC[C@H]1C[C@H]2[C@H](O)c1ccnc2ccccc12 [(-)-Cinchonidine] | false |
| BrC1C(Br)C(Br)C(Br)C(Br)C1Br (stereo not drawn) | false |
| O[C@H]1[C@H](O)[C@@H](O)CN2CC[C@H](O)[C@H]12 | false |
| N#CC(C#N)=NNc1ccc(OC(F)(F)F)cc1 | true |
| COc1ccc2c(c1OC)C(=O)O[C@@H]2[C@H]1c2cc3c(cc2CCN1C)OCO3 [Hydrastine] | false |
| CCN1C[C@]2(COC)CC[C@H](O)[C@]34[C@@H]5C[C@H]6[C@H](OC)[C@@H]5[C@](O)(C[C@@H]6OC)[C@](O)([C@H]13)[C@@H](OC)[C@H]24 | false |
| CCN1CCN(C(=O)Cc2ccc(Nc3ncc(F)c(Nc4ccc(C(=O)Nc5ccccc5Cl)cc4)n3)cc2)CC1 | false |
| OCC[N+]12CN3CN(CN(C3)C1)C2 | false |
| CN1CCC2=C[C@H](O)[C@H]3OC(=O)c4cc5c(cc4[C@H]3[C@@H]21)OCO5 [Hippeastrine hydrobromide] | false |
| Clc1ccc2c(c1)C(c1ccccc1)=NCc1nncn1-2 | false |
| CC[C@H]1CN2CCc3cc(OC)c(OC)cc3[C@@H]2C[C@@H]1C[C@H]1NCCc2cc(OC)c(OC)cc21 | true |
| C[C@@H]1CN([C@H]2CC[C@](C#N)(c3ccc(F)cc3)CC2)CC[C@]1(C(=O)O)c1ccccc1 | false |
| CC(C)[N+](C)(CCC(C(N)=O)(c1ccccc1)c1ccccc1)C(C)C [isopropamide-iodide] | false |
| O=c1cccc2n1C[C@H]1CNC[C@H]2C1 [Cytisine nitrate hydrate] | false |
| COc1ccc2c(c1)/C(=C/c1c[nH]cn1)C(=O)N2 | true |
| Cc1sc2c(c1C)C(c1ccc(Cl)cc1)=N[C@@H](CC(N)=O)c1nnc(C)n1-2 | true |

* * *

// phenotypically active lookup, one value per entry
System: WPMY1-ACTB-RAB5A
Experiment: phenotypically active (imaging signature differs from DMSO and reproducible) at any of 0.3-9 uM (binary (1 = active, 0 = inactive)); higher = active
Details: treatment time: 24 h
Test readout: phenotypically active

| Compound | Result number |
| --- | --- |
| C[C@]12CC[C@H](O)C[C@H]1CC[C@@H]1[C@@H]2C[C@@H](O)[C@]2(C)[C@@H](C3=CC(=O)OC3)CC[C@]12O [Digoxigenin] | 1 |
| C[N+]12CCC(CC1)C(OC(=O)C(O)(c1ccccc1)c1ccccc1)C2 (centres undefined) [clidinium] | 0 |
| COC[C@H]1OC(=O)c2coc3c2[C@@]1(C)C1=C(C3=O)[C@@H]2CCC(=O)[C@@]2(C)C[C@H]1OC(C)=O [wortmannin] | 0 |
| C[C@@H](CO)NC(=O)[C@@H]1C=C2c3cccc4[nH]cc(c34)C[C@H]2N(C)C1 [Ergobasine] | 0 |

* * *

System: HepG2-TP53BP1-CLTA
Assay: phenotypically active (imaging signature differs from DMSO and reproducible) at any of 0.3-9 uM (binary (1 = active, 0 = inactive)); higher = active
Settings: treatment time: 24 h
Structures can show the parent of a compound that is named as a salt.
Labels: yes (1) (active), no (0) (inactive)

| Compound | Label |
| --- | --- |
| CN1CCc2cc3c(cc2[C@H]1[C@@H]1OC(=O)c2c1ccc1c2OCO1)OCO3 | no (0) |
| COC1=CC(C)=C[C@@H](C)[C@@H](O)[C@@H](C)CC(C)=CC=C[C@H](OC)[C@@H]([C@@H](C)[C@@H](O)[C@H](C)[C@@]2(O)C[C@@H](O)[C@H](C)[C@@H](C(C)C)O2)OC1=O | yes (1) |
| CN1CCC2=C[C@H](O)[C@H]3OC(=O)c4cc5c(cc4[C@H]3[C@@H]21)OCO5 [Hippeastrine hydrobromide] | no (0) |
| N[C@H]1C[C@@H]1c1ccccc1 | no (0) |
| COc1ccc(C(=O)OC2C[C@H]3CC[C@H](C2)N3C)cc1OC (stereo partly specified) [Convolamine hydrochloride] | no (0) |
| CCN1C[C@]2(COC)CC[C@H](O)[C@]34[C@@H]5C[C@H]6[C@H](OC)[C@@H]5[C@](O)(C[C@@H]6OC)[C@](O)([C@H]13)[C@@H](OC)[C@H]24 | no (0) |
| C[C@H]1O[C@@H](O[C@H]2[C@@H](O)C[C@H](O[C@H]3[C@@H](O)C[C@H](O[C@H]4CC[C@@]5(C)[C@H](CC[C@@H]6[C@@H]5CC[C@]5(C)[C@@H](C7=CC(=O)OC7)[C@@H](O)C[C@]65O)C4)O[C@@H]3C)O[C@@H]2C)C[C@H](O)[C@@H]1O | yes (1) |
| CC(C)(C)c1cc(C=C(C#N)C#N)cc(Br)c1O | no (0) |
| c1cncc(C2CC3CCN2CC3)c1 (stereo unspecified) [RJR 2429 dihydrochloride] | no (0) |
| O=c1cccc2n1C[C@H]1CNC[C@H]2C1 [Cytisine nitrate hydrate] | no (0) |
| CNC(C)(C)Cc1ccccc1 | no (0) |
| COc1ccc2c3c1O[C@H]1C(=O)CC[C@H]4[C@@H](C2)N(C)CC[C@]314 [hydrocodone] | no (0) |
| COc1ccc2c3c1O[C@H]1C(=O)CC[C@@]4(O)[C@@H](C2)N(C)CC[C@]314 | no (0) |
| CC[C@H]1CN2CCC1C[C@H]2[C@H](O)c1ccnc2ccc(OC)cc12 (stereo partly specified) [Hydroquinine hydrobromide hydrate] | no (0) |
| Cc1ccc(-c2nc3ccc(C)cn3c2CC(=O)N(C)C)cc1 | no (0) |
| CN1[C@@H]2CC(=O)C[C@H]1[C@H](O)C2 [6-Hydroxytropinone] | no (0) |

* * *

Test system: WPMY1-TP53BP1-CLTA
Assay: phenotypically active (imaging signature differs from DMSO and reproducible) at any of 0.3-9 uM (binary (1 = active, 0 = inactive)); higher = active
Details: treatment time: 24 h
Possible outcomes: 1 for active, 0 for inactive

| Compound | Label |
| --- | --- |
| C=C1[C@H]2C[C@@]3([C@@H]1O)[C@@H](C[C@@H]2O)[C@]12[C@@H]4C[C@H]3[C@H]1N(CC)C[C@]4(C)CC[C@@H]2O [Napelline] | 0 |
| COC1=CC(C)=C[C@@H](C)[C@@H](O)[C@@H](C)CC(C)=CC=C[C@H](OC)[C@@H]([C@@H](C)[C@@H](O)[C@H](C)[C@@]2(O)C[C@@H](O)[C@H](C)[C@@H](C(C)C)O2)OC1=O [Bafilomycin A1] | 1 |
| C/C=C1\CN2CC[C@]34c5cc(OC)ccc5N5C(=O)C(O)OC[C@@H]([C@H]53)[C@H]1C[C@H]24 (stereo partly drawn) [10-Methoxy-o-demethyltsilanine] | 0 |
